measurement_description: NCI Yeast Anticancer Drug Screen. Data for the wt1 strain (AID 149);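 note: 0% = growth of vehicle-treated wt1 cultures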
protocol_conditions: S. cerevisiae wt1 strain (SPY 50644) growth inhibition; at 100.0 µM
This is part of a sample that, as a whole, favours compounds with a hit. Of some 79,000 tested, about 15% had one in any assay. Active and inactive are the calls of the source. Cut-off read from the data, not from the text of the source: active = growth inhibition above about 70%; inactive = the rest.
Outcome codes: yes (1) (active), no (0) (inactive)

# molecule, class
measured = [
    ("COC1=C(OC)C(=O)C(Sc2ccc3ccccc3c2)=CC1=O", "yes (1)"),
    ("Cc1c2cc[n+](Cc3ccc(I)cc3)cc2c(C)c2c1[nH]c1ccccc12", "yes (1)"),
    ("COc1cc(/C=N/Nc2nnc3c4ccccc4c4ncccc4c3n2)cc(OC)c1OC", "no (0)"),
    ("Cc1cc(C(C)(C)C)c(OCCCN2CCOCC2)c(C(C)(C)C)c1", "no (0)"),
    ("CCCCOCn1c(=O)[nH]c(=O)c2cc(Br)ccc21", "no (0)"),
    ("COc1cc(O)c2c(c1O)C(=O)c1cc(C)ncc1C2=O", "no (0)"),
    ("Cc1cc(-c2cc(C)c(O)c(C(C)(C)C)c2)cc(C(C)(C)C)c1O", "yes (1)"),
    ("CCCCCCCCCCCC1N=C(N)NC(CCCO)=C1C(=O)OC (stereo not drawn)", "yes (1)"),
    ("CCCCCCCCCCCC1=NCCO1", "yes (1)"),
    ("Cc1cc(=O)oc2c(C)c3occc(=O)c3cc12", "no (0)"),
    ("N#CC1=C(N)N(/N=C/c2ccccc2)C(c2ccccc2)C1(C#N)C#N (stereo not drawn)", "no (0)"),
    ("Cc1cc(N(CCOS(C)(=O)=O)CCOS(C)(=O)=O)ccc1C=Nc1ccc(-c2csc(-c3ccccc3)n2)c(Cl)c1", "yes (1)"),
    ("Nc1ccc(F)cc1S", "yes (1)"),
    ("C[C@]12CC[C@H](O)CC1=CC[C@@H]1C2CC[C@]2(C)C(=O)NC(=O)CC12 (stereo partly drawn)", "yes (1)"),
    ("CC(=O)OCC1OC2OC(=O)NC2C(OC(C)=O)C1OC(C)=O (stereo not drawn)", "no (0)"),
    ("COC(C(O)CO)C(O)C(O)C(=O)NNc1ccccc1 (stereo not drawn)", "no (0)"),
    ("CN(C)/C=C/c1nnc([N+](=O)[O-])s1", "yes (1)"),
    ("COc1cc([C@@H]2c3cc4c(cc3[C@H](OC3OC5COC(C(C)C)OC5C(O)C3O)C3COC(=O)[C@@H]32)OCO4)cc(OC)c1O (stereo partly drawn)", "no (0)"),
    ("COc1cc2cc3c4cc(OC)c(OC)cc4cc[n+]3c(C)c2cc1OC", "no (0)"),
    ("NC(=S)NC(=S)Nc1ccccc1", "no (0)"),
    ("CS(=O)(=O)OCCN(CCOS(C)(=O)=O)c1ccc(C=Nc2ccc(-c3csc(COc4ccccc4)n3)cc2)cc1", "yes (1)"),
    ("Clc1ccc2c(c1)N(CCCN1CCCC13CCCCC3)c1ccccc1S2", "no (0)"),
    ("O=[N+]([O-])c1cc(S(=O)(=O)Nc2ccccc2)ccc1Nc1ccccc1", "yes (1)"),
]

* * *

measurement_description: NCI Yeast Anticancer Drug Screen. Data for the rad14 strain (AID 159);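 note: 0% = growth of vehicle-treated control cultures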
protocol_conditions: S. cerevisiae rad14 strain growth inhibition; at 3.7 µM; hits give high values
About 79,000 compounds went through this panel and 15% of them were active in at least one assay; those are over-represented in the sample as a whole.

# molecule, growth inhibition (%)
records = [
    ("COc1cc([C@@H]2c3cc4c(cc3[C@@H](Nc3ccc(NC(=O)c5cc([N+](=O)[O-])cn5C)cc3)[C@H]3COC(=O)[C@H]23)OCO4)cc(OC)c1O", 16),
    ("O=[N+]([O-])/C=C/c1cc(Cl)c(/C=C/[N+](=O)[O-])cc1Cl", 68),
    ("O=c1[nH]c2ccc(Cl)cc2o1", -38),
    ("COC1=C(N)C(=O)c2nc(-c3nc(C(=O)O)c(C)c(-c4ccc(OC)c(OC)c4O)c3N)ccc2C1=O", 98),
    ("O=C1NC(=O)c2ccc([N+](=O)[O-])c3cccc1c23", 5),
]

* * *

measurement_description: NCI Yeast Anticancer Drug Screen. Data for the rad50EPP+ strain (AID 151);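 note: 0% = growth of vehicle-treated control cultures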
protocol_conditions: S. cerevisiae rad50 mutant strain, at 33.0 µM
The panel holds about 79,000 compounds, 15% with a hit somewhere; the sample as a whole holds those more often. Active and inactive are the calls of the source. No stated cut-off is given here; in the data, active means growth inhibition above about 70%; inactive means the rest.
Outcome codes: yes (1) for active, no (0) for inactive

# molecule, class
records = [
    ("COC(=O)CCC(NC(=S)N/N=C(\\C)c1ccccn1)C(=O)OC (stereo unspecified)", "no (0)"),
    ("CC(C)(C)c1ccc(NS(=O)(=O)c2ccc(N)cc2)cc1", "no (0)"),
    ("O=C1c2ccccc2C(=O)c2cc(CCl)ccc21", "no (0)"),
    ("C[Si](C)(C)/C=C/CCNC(C#N)c1ccccc1 (stereo unspecified)", "no (0)"),
    ("O=c1nc2n(Cc3ccccc3)c3ccccc3nc-2c(=O)[nH]1", "yes (1)"),
    ("Cc1ccc(NC(=O)/C(CC2N=c3c(ccc4c(O)c5ccccc5c(O)c34)=NC2O)=N/NC(C)(C)C)cc1 (stereo unspecified)", "no (0)"),
    ("NCCNCCNc1ccc(NCCNCCN)c2c1C(=O)c1c(O)ccc(O)c1C2=O", "yes (1)"),
    ("N#CC(=Nc1ccccc1F)Nc1ccccc1F", "no (0)"),
    ("CCOC(=O)c1[nH]n(-c2ccccc2)c(=O)c1C=NC(=S)C(N)=S", "no (0)"),
    ("CN(C)[C@@H]1C(=O)C(C(N)=O)=C(O)[C@@]2(O)C(=O)C3=C(O)c4c(O)cccc4C[C@H]3C[C@@H]12", "no (0)"),
    ("COc1ccc(N=CN(C)C)c(C)c1", "no (0)"),
    ("CC1(C)CC(=O)C(/C=N/c2nc(-c3ccccc3)cs2)=C(O)C1", "no (0)"),
    ("CCC(C)NC1=NCC(C)S1 (stereo unspecified)", "no (0)"),
    ("Oc1ccc2ccccc2c1CCc1c(O)ccc2ccccc12", "yes (1)"),
    ("COc1nc2c(c(=O)n1C)N=C(c1ccccc1)[C@H](C(CC(=O)c1ccccc1)c1ccccc1)C(c1ccccc1)N2 (stereo partly specified)", "no (0)"),
    ("Cc1c2cccc(Sc3ccccc3)c2c2c3c(cccc13)[S+](c1ccccc1)C2 (stereo unspecified)", "yes (1)"),
    ("CN(C)CCNC(=O)c1cccc2c1Oc1c(cccc1[N+](=O)[O-])O2", "no (0)"),
    ("Cc1nc(-c2cc3cc([N+](=O)[O-])ccc3oc2=O)cs1", "yes (1)"),
    ("CCOC(=O)c1ccc(NC(=O)O/N=C(/Cl)C(C)C)cc1", "no (0)"),
    ("O=C(/C=C(/c1ccccc1)N1CCCCC1)c1ccccc1", "no (0)"),
    ("O=[N+]([O-])c1cc(F)c(F)cc1Sc1cc(F)c(F)cc1[N+](=O)[O-]", "yes (1)"),
    ("CCOc1c(N=Nc2ccccc2OC)c(C)nn1C(=S)S", "no (0)"),
    ("Oc1[nH]c2ccccc2c1N=NC(=S)N1CCCCC1", "no (0)"),
    ("COc1cc(O)c(O)c(C(C)(C)C)c1", "no (0)"),
    ("CN(C)Cc1cc(N=Nc2ccc(Cl)cc2)ccc1OC(=O)c1ccccc1", "no (0)"),
    ("CCOC(=O)C1N=[N+](c2ccccc2)C(=O)/C1=C\\n1c(=S)[nH]c2ccc([N+](=O)[O-])cc21 (stereo unspecified)", "no (0)"),
    ("O=[n+]1c2ccccc2n([O-])c2cc(Br)ccc21", "yes (1)"),
    ("Cn1c(=O)c2c(nc(N)n2C2OC(CO)C(O)C2O)n(C)c1=O (stereo unspecified)", "no (0)"),
    ("Cc1ccc(NC(c2ccccc2)c2ccc3cccnc3c2O)cc1 (stereo unspecified)", "no (0)"),
    ("Cc1c(C)c(C)c(CSC(=N)N)c(C)c1C", "no (0)"),
    ("Cc1cc(O)c(C(C)C)cc1C1(c2cc(C(C)C)c(O)cc2C)OC(=O)c2ccccc21", "no (0)"),
    ("Cc1cc2c3ccccc3c3ccccc3c2nn1", "no (0)"),
    ("Cc1ccc(NCCNCCO)c2c(=O)c3cc(O)ccc3sc12", "no (0)"),
    ("CNC(=O)OCc1c(COC(=O)NC)c(-c2ccc(Cl)cc2)n2c1CCC2", "no (0)"),
    ("CCCCc1nnc(NS(=O)(=O)c2ccc(C)cc2)s1", "no (0)"),
    ("COc1ccc(/C=C2\\NC(=S)N(/C=C3\\C(=O)Oc4ccccc4C3=O)C2=O)cc1", "no (0)"),
    ("OC(CCNCc1ccccc1)c1ccc2ccccc2c1 (stereo unspecified)", "no (0)"),
    ("O=c1ccc(=O)n(-c2ccccc2)[nH]1", "yes (1)"),
    ("CC(=O)Nc1ccc(/C=C/[N+](=O)[O-])cc1", "yes (1)"),
    ("CCN(CC)CCN(C)CCc1ccc(Br)cc1", "no (0)"),
    ("CCCCCCN(CCCCCC)CC(O)c1ccnc2ccc(OC)cc12 (stereo unspecified)", "no (0)"),
    ("CN(C)c1ccc(N=Nc2ccncc2)cc1", "yes (1)"),
    ("O=C1C=C(Cl)C(=O)N1c1cccc(Cl)c1", "yes (1)"),
    ("O=C(O)c1ccc(N2C(=O)C=CC2=O)cc1", "no (0)"),
    ("Cc1cc(N(CCOS(C)(=O)=O)CCOS(C)(=O)=O)ccc1C=Nc1ccc(-c2csc(-c3ccccc3)n2)c(Cl)c1", "no (0)"),
    ("O=C(NCCCNCCN1C(=O)c2cccc3cc([N+](=O)[O-])cc(c23)C1=O)c1cc(-c2ccccc2)nc2ccccc12", "no (0)"),
]
